# credit: patent US5601801A

Test: Biodistribution of ^131 I-3 in CD-1 Mice, normal and blocked with lisinopril
Format: in vivo
Conditions: mouse, small intestine, iv, 1 uCi, 0.5 hours, blocked (lisinopril); read-out: Biodistribution, Sm. Intest.
Protocol: It is well known that there are high ACE concentrations in the lungs, kidneys, pre-optic region of the brain and the blood.^4 Localization of the radioactivity in these organs was expected. […] A blocking study was undertaken to differentiate between specific and non-specific binding. ^131 I-3 was prepared as described above and used in this experiment. The experiment was carried out using male CD-1 mice. […] The desired organs were rinsed, blotted, weighed and counted. […]
propertyLabel: tissue uptake at 0.5 h (%ID/g)
Your answer is read as %ID/g, so omit the unit and give the number.

Give the measured tissue uptake at 0.5 h for O=C(NCCCC[C@H](N[C@@H](CCc1ccccc1)C(=O)O)C(=O)N1CCC[C@H]1C(=O)O)c1cccc([131I])c1 [^131 I-3, Lisinopril N^ε -radioiodobezamide]
19.8

====

assay: Biodistribution of ^131 I-3 in CD-1 Mice, normal and blocked with lisinopril; assay type: in vivo; conditions: mouse, contents, iv, 1 uCi, 0.5 hours, normal (not blocked); read-out: Biodistribution, Contents
propertyLabel: tissue uptake at 0.5 h (%ID/g)
Report the figure in %ID/g without appending any unit label.

Supply measured tissue uptake at 0.5 h of O=C(NCCCC[C@H](N[C@@H](CCc1ccccc1)C(=O)O)C(=O)N1CCC[C@H]1C(=O)O)c1cccc([131I])c1 [^131 I-3, Lisinopril N^ε -radioiodobezamide] in your reply.
21.4

====

experiment: Biodistribution of ^131 I-3 in CD-1 Mice, normal and blocked with lisinopril; assay type: in vivo; settings: mouse, small intestine, iv, 1 uCi, 1.5 hours, normal (not blocked); read-out: Biodistribution, Sm. Intest.
propertyLabel: tissue uptake at 1.5 h (%ID/g)
State the answer as a number, implicitly in %ID/g.

Find the measured tissue uptake at 1.5 h of O=C(NCCCC[C@H](N[C@@H](CCc1ccccc1)C(=O)O)C(=O)N1CCC[C@H]1C(=O)O)c1cccc([131I])c1 [^131 I-3, Lisinopril N^ε -radioiodobezamide] and report it.
27

====

assay: Biodistribution of ^131 I-3 in CD-1 Mice, normal and blocked with lisinopril; assay type: in vivo; conditions: mouse, muscle, iv, 1 uCi, 1.5 hours, normal (not blocked); read-out: Biodistribution, Muscle
propertyLabel: tissue uptake at 1.5 h (%ID/g)
Write the number in %ID/g without appending the unit.

Determine its reported tissue uptake at 1.5 h: O=C(NCCCC[C@H](N[C@@H](CCc1ccccc1)C(=O)O)C(=O)N1CCC[C@H]1C(=O)O)c1cccc([131I])c1 [^131 I-3, Lisinopril N^ε -radioiodobezamide]
0.8

====

assay: Biodistribution of ^131 I-3 in CD-1 Mice, normal and blocked with lisinopril; type: in vivo; settings: mouse, muscle, iv, 1 uCi, 3.0 hours, normal (not blocked); read-out: Biodistribution, Muscle
propertyLabel: tissue uptake at 3 h (%ID/g)
Number only, in %ID/g; omit the unit.

Write down tissue uptake at 3 h measured for item O=C(NCCCC[C@H](N[C@@H](CCc1ccccc1)C(=O)O)C(=O)N1CCC[C@H]1C(=O)O)c1cccc([131I])c1 [^131 I-3, Lisinopril N^ε -radioiodobezamide]
0.6

====

test: Biodistribution of ^131 I-3 in CD-1 Mice, normal and blocked with lisinopril; type: in vivo; details: mouse, blood, iv, 1 uCi, 6.0 hours, blocked (lisinopril); read-out: Biodistribution, Blood
propertyLabel: tissue uptake at 6 h (%ID/g)
Answer format: numeric, %ID/g implied, no suffix.

Look up and report measured tissue uptake at 6 h for this entry: O=C(NCCCC[C@H](N[C@@H](CCc1ccccc1)C(=O)O)C(=O)N1CCC[C@H]1C(=O)O)c1cccc([131I])c1 [^131 I-3, Lisinopril N^ε -radioiodobezamide]
0.9

====

Assay: Biodistribution of ^131 I-3 in CD-1 Mice, normal and blocked with lisinopril
Assay type: in vivo
Conditions: mouse, lung, iv, 1 uCi, 3.0 hours, normal (not blocked); read-out: Biodistribution, Lung
Method: It is well known that there are high ACE concentrations in the lungs, kidneys, pre-optic region of the brain and the blood.^4 Localization of the radioactivity in these organs was expected. […] A blocking study was undertaken to differentiate between specific and non-specific binding. ^131 I-3 was prepared as described above and used in this experiment. The experiment was carried out using male CD-1 mice. […] The desired organs were rinsed, blotted, weighed and counted. […]
propertyLabel: tissue uptake at 3 h (%ID/g)
Write down the numeric answer in %ID/g and omit the unit.

Name the recorded tissue uptake at 3 h of the item O=C(NCCCC[C@H](N[C@@H](CCc1ccccc1)C(=O)O)C(=O)N1CCC[C@H]1C(=O)O)c1cccc([131I])c1 [^131 I-3, Lisinopril N^ε -radioiodobezamide] in your answer.
1.7

====

experiment: Biodistribution of ^131 I-3 in CD-1 Mice, normal and blocked with lisinopril; type: in vivo; conditions: mouse, liver, iv, 1 uCi, 3.0 hours, blocked (lisinopril); read-out: Biodistribution, Liver
propertyLabel: tissue uptake at 3 h (%ID/g)
Answer with a number only, understood to be in %ID/g.

Kindly indicate its recorded tissue uptake at 3 h. Item: O=C(NCCCC[C@H](N[C@@H](CCc1ccccc1)C(=O)O)C(=O)N1CCC[C@H]1C(=O)O)c1cccc([131I])c1 [^131 I-3, Lisinopril N^ε -radioiodobezamide]
1.9

====

Assay: Biodistribution of ^131 I-3 in CD-1 Mice, normal and blocked with lisinopril
Assay type: in vivo
Details: mouse, lung, iv, 1 uCi, 1.5 hours, normal (not blocked); read-out: Biodistribution, Lung
Experimental: It is well known that there are high ACE concentrations in the lungs, kidneys, pre-optic region of the brain and the blood.^4 Localization of the radioactivity in these organs was expected. […] A blocking study was undertaken to differentiate between specific and non-specific binding. ^131 I-3 was prepared as described above and used in this experiment. The experiment was carried out using male CD-1 mice. […] The desired organs were rinsed, blotted, weighed and counted. […]
propertyLabel: tissue uptake at 1.5 h (%ID/g)
Field: numeric (%ID/g). Do not append units.

Identify measured tissue uptake at 1.5 h associated with O=C(NCCCC[C@H](N[C@@H](CCc1ccccc1)C(=O)O)C(=O)N1CCC[C@H]1C(=O)O)c1cccc([131I])c1 [^131 I-3, Lisinopril N^ε -radioiodobezamide]
1.8

====

assay: Biodistribution of ^131 I-3 in CD-1 Mice, normal and blocked with lisinopril; type: in vivo; details: mouse, contents, iv, 1 uCi, 6.0 hours, normal (not blocked); read-out: Biodistribution, Contents
propertyLabel: tissue uptake at 6 h (%ID/g)
Report the value in %ID/g with no unit label.

State, in one line, measured tissue uptake at 6 h of O=C(NCCCC[C@H](N[C@@H](CCc1ccccc1)C(=O)O)C(=O)N1CCC[C@H]1C(=O)O)c1cccc([131I])c1 [^131 I-3, Lisinopril N^ε -radioiodobezamide]
65.9

====

Experiment: Biodistribution of ^131 I-3 in CD-1 Mice, normal and blocked with lisinopril
Type: in vivo
Details: mouse, fat, iv, 1 uCi, 1.5 hours, normal (not blocked); read-out: Biodistribution, Fat
Description: It is well known that there are high ACE concentrations in the lungs, kidneys, pre-optic region of the brain and the blood.^4 Localization of the radioactivity in these organs was expected. […] A blocking study was undertaken to differentiate between specific and non-specific binding. ^131 I-3 was prepared as described above and used in this experiment. The experiment was carried out using male CD-1 mice. […] The desired organs were rinsed, blotted, weighed and counted. […]
propertyLabel: tissue uptake at 1.5 h (%ID/g)
Note: unit %ID/g is implicit; provide only the numeric part.

Quick one: give measured tissue uptake at 1.5 h for O=C(NCCCC[C@H](N[C@@H](CCc1ccccc1)C(=O)O)C(=O)N1CCC[C@H]1C(=O)O)c1cccc([131I])c1 [^131 I-3, Lisinopril N^ε -radioiodobezamide]
0.8

====

experiment: Biodistribution of ^131 I-3 in CD-1 Mice, normal and blocked with lisinopril; type: in vivo; settings: mouse, lung, iv, 1 uCi, 1.5 hours, blocked (lisinopril); read-out: Biodistribution, Lung
propertyLabel: tissue uptake at 1.5 h (%ID/g)
// return numeric value only (unit: %ID/g, not printed)

Complete the entry with tissue uptake at 1.5 h for O=C(NCCCC[C@H](N[C@@H](CCc1ccccc1)C(=O)O)C(=O)N1CCC[C@H]1C(=O)O)c1cccc([131I])c1 [^131 I-3, Lisinopril N^ε -radioiodobezamide]
0.6

====

assay: Biodistribution of ^131 I-3 in CD-1 Mice, normal and blocked with lisinopril; format: in vivo; conditions: mouse, large intestine, iv, 1 uCi, 6.0 hours, normal (not blocked); read-out: Biodistribution, lg. Intest.
propertyLabel: tissue uptake at 6 h (%ID/g)
The reply should contain only the number, in %ID/g.

Give the reported value of tissue uptake at 6 h for this record: O=C(NCCCC[C@H](N[C@@H](CCc1ccccc1)C(=O)O)C(=O)N1CCC[C@H]1C(=O)O)c1cccc([131I])c1 [^131 I-3, Lisinopril N^ε -radioiodobezamide]
18.6
